Reported growth values for the following molecules.
Tested on: HS 578T breast
Assay: NCI-60 one-dose screen, 48 h (100 = growth as untreated, 0 = no growth, -100 = all killed)
Settings: 10 µM unless noted
Compounds without any hit were thinned out: in the full panel of roughly 83,000, 20% have a hit.
# number only, unit % dropped from output

See these solved cases before continuing.
O=C1C2=C(CCN(Cc3ccccc3)C2)N2CCN=C2N1Cc1ccc(C(F)(F)F)cc1; 36
CCCN1CCN(c2ccc3nc(-c4ccc5nc(-c6cc(OC)c(OC)c(OC)c6)[nH]c5c4)[nH]c3c2)CC1; 54.1
N#Cc1cccc(-c2nc3ccccn3c2NCCN2CCOCC2)c1; 96.2

Now consider a different molecule.
Sure, the documented growth for Fc1ccc(Nc2nc3nonc3nc2Nc2ccc(F)cc2)cc1 is -1.86
